Test system: LOX IMVI melanoma
assay.overview: NCI tumour cell line growth inhibition, 48 h; in the data active = GI50 below about 0.43 µM; inactive = the rest
API: response.call in label 1 = active, label 0 = inactive

Which outcome was assigned to CCCCCCCCCCN=C(c1ccc(N(C)C)cc1)c1ccc(N(C)C)cc1 in this test?
label 0

Which outcome was assigned to OB1OCc2cc(/C=C/c3cccc(C(F)(F)F)c3)ccc21 in this test?
label 1

Which outcome was assigned to CNC(=O)c1cc2c(Oc3ccc(NC(=O)C4(C(=O)Nc5ccc(F)cc5)CC4)cc3)ccnc2cc1OC in this test?
label 0

Which outcome was assigned to CC1(C)N=C(N)N=C(N)N1c1ccc(OCC(=O)Nc2ccccc2)c(Cl)c1 in this test?
label 0

Which outcome was assigned to C[C@H](Cn1ncnn1)Nc1ncc2cc(Oc3ccc(F)cc3F)c(=O)n(C)c2n1 in this test?
label 0

Which outcome was assigned to CN(C)Cc1c[nH]c2c(NCCN)c3c(c(NCCN)c12)C(=O)c1ccccc1C3=O in this test?
label 0

Which outcome was assigned to CCC1=C[C@@H]2CN(C1)Cc1c([nH]c3ccccc13)[C@@](C(=O)OC)(c1cc3c(cc1OC)N(C)[C@H]1[C@@](O)(C(=O)OC)[C@H](OC(C)=O)[C@]4(CC)[C@@H]5C[C@@H]5CN5CC[C@]31[C@@H]54)C2 in this test?
label 1

Which outcome was assigned to Cc1ncc(C(=O)Nc2ccc(CN3CCN(C)CC3)c(C(F)(F)F)c2)cc1C#Cc1cnc(NC2CC2)c2ncccc12 in this test?
label 0

Which outcome was assigned to C=C(CN1CCc2ccccc2C1)c1ccc(C(=O)Nc2ccccc2N)cc1 in this test?
label 1

Which outcome was assigned to CC(=O)[O-].CC(=O)[O-].CC(=O)[O-].CC(=O)[O-].[Mo+2].[Mo+2] in this test?
label 0

Which outcome was assigned to O=C1c2cccnc2-c2nc(-c3ccncc3)cc3c2c1nc1ccccc13 in this test?
label 0

Which outcome was assigned to COCCOCCOCc1n(Cc2ccc3ccccc3n2)c2ccccc2[n+]1Cc1ccc2ccccc2c1 in this test?
label 1

Which outcome was assigned to COc1ccccc1/C=C/C(=O)/C=C/c1ccccc1O in this test?
label 0

Which outcome was assigned to O=S(=O)(CCOCc1ccc(-c2ccc3ncnc(Nc4ccc(OCc5cccc(F)c5)c(Cl)c4)c3c2)o1)c1ccccc1 in this test?
label 0

====

Test system: COLO 205 colon
assay.overview: NCI tumour cell line growth inhibition, 48 h
observation.type: log10 of TGI (log10 of the value in µM)
A difference of one corresponds to tenfold TGI; all values are log10 with TGI in µM.

Given item COc1ccc2nc3cc(Cl)ccc3c(NCCCNCCCNc3c4ccc(Cl)cc4nc4ccc(OC)cc34)c2c1 , the value recorded as its log10 of TGI is -0.80

Given item O=C(N=Nc1cc(Cl)ccc1Cl)NNc1cc(Cl)ccc1Cl , the value recorded as its log10 of TGI is 1.61

Given item C=C1CC2(OC1=O)C(=O)N(CCCN1C(=O)C3(CC(=C)C(=O)O3)c3ccccc31)c1ccccc12 (configuration not stated) , the value recorded as its log10 of TGI is 0.31

Given item O=P(c1ccccc1)(c1ccccc1)N1O[C@@H](c2ccccc2)C=C[C@H]1c1ccccc1 , the value recorded as its log10 of TGI is 1.49

Given item CCC(=C(c1ccc(OCCCN(C)C)cc1)c1ccc(OCCCN(C)C)cc1)c1ccc(Cl)cc1 , the value recorded as its log10 of TGI is 0.02

Given item COc1cc(C2CC(C)(Nc3ccccc3)Oc3cc4c(cc32)OCO4)cc(OC)c1OC (configuration not stated) , the value recorded as its log10 of TGI is 0.72

Given item Oc1ccccc1/C=N/c1nc2cc3sc(/N=C/c4ccccc4O)nc3cc2s1 , the value recorded as its log10 of TGI is 1.32

Given item CC(C)(C)NC(=O)/C(=C\Sc1ccccc1)c1ccc2c(c1)OCO2 , the value recorded as its log10 of TGI is 1.73

Given item COc1ccc2cc3c4cc5c(cc4cc[n+]3cc2c1OC)OCO5 , the value recorded as its log10 of TGI is 0.83

====

Test system: SN12C renal
assay.overview: NCI tumour cell line growth inhibition, 48 h
observation.type: TGI

Given item O=c1c2ccccc2nc2[nH][nH]c(=S)n12 , the value recorded as its TGI is > 100 µM

Given item CC(C)(C)NC(=O)/C(=C\Sc1ccccc1)c1ccc2c(c1)OCO2 , the value recorded as its TGI is 84.2 µM

Given item C(=N\NC1=NCCCN1)/c1ccc2ccccc2c1 , the value recorded as its TGI is 26.6 µM

Given item C[C@H](Cn1ncnn1)Nc1ncc2cc(Oc3ccc(F)cc3F)c(=O)n(C)c2n1 , the value recorded as its TGI is > 25 µM

Given item CC(=O)O[C@]12CCCCCC1C1(O)C(O)CCC[C@H]12 (stereo partly specified) , the value recorded as its TGI is > 100 µM

Given item Brc1cccc(Nc2nc(-c3cccs3)nc3ccc(Br)cc23)c1 , the value recorded as its TGI is 71.3 µM

Given item CCOC(=O)c1ccc(N[C@@H]2c3cc4c(cc3C(C3=CC(=O)C(=O)C(OC)=C3)[C@H]3C(=O)OCC32)OCO4)cc1 (stereo partly specified) , the value recorded as its TGI is > 21.1 µM

Given item COc1ccc2cc3c4cc5c(cc4cc[n+]3cc2c1OC)OCO5 , the value recorded as its TGI is 54.2 µM

Given item O=C1C(Cl)=C(Nc2ccccc2)C(=O)c2ccccc21 , the value recorded as its TGI is 3.59 µM

Given item O=C1CN2C(c3ccccc3)=NN(c3ccc([N+](=O)[O-])cc3)C2(c2ccccc2)c2cc(Cl)ccc2N1CC1CC1 (stereo unspecified) , the value recorded as its TGI is > 100 µM

Given item O=C(CCCN1CCC2(CC1)CC(=O)N(N1CCOCC1)C2=O)c1ccccc1 , the value recorded as its TGI is > 100 µM

Given item O=S(=O)(O)c1cc2ccc1/C=C\c1ccc(cc1S(=O)(=O)O)N=Nc1ccc(c(S(=O)(=O)O)c1)/C=C\c1ccc(cc1S(=O)(=O)O)N=N2 , the value recorded as its TGI is > 100 µM

Given item c1ccc2c(c1)NC(C1OC3CCCN3C1C1Nc3ccccc3S1)S2 (stereo unspecified) , the value recorded as its TGI is > 100 µM

Given item COc1ccccc1/C=C/C(=O)/C=C/c1ccccc1O , the value recorded as its TGI is 5.65 µM

Given item CC(=O)OC1COC(n2c(=S)n(-c3ccccc3)c(=O)c3cc(Br)ccc32)C(OC(C)=O)C1OC(C)=O (stereo unspecified) , the value recorded as its TGI is > 100 µM

Given item CSc1cc(Cl)c(C)cc1S(=O)(=O)NC(=O)NNc1ccc(Cl)cc1 , the value recorded as its TGI is > 100 µM

Given item Oc1ccccc1/C=N/c1nc2cc3sc(/N=C/c4ccccc4O)nc3cc2s1 , the value recorded as its TGI is > 100 µM

Given item C/C=C/C=C/c1nc(C#N)c(N)o1 , the value recorded as its TGI is > 100 µM

Given item O=C/C(=C(/Cl)c1ccc(O)cc1)c1ccccc1 , the value recorded as its TGI is > 61.3 µM

Given item COc1cc(C2SCC(=O)N2c2ccc(NC(=O)c3ccc(N4C(=O)CSC4c4cc(OC)c(OC)c(OC)c4)cc3)cc2)cc(OC)c1OC (stereo unspecified) , the value recorded as its TGI is > 100 µM

Given item O=C(NCCN1CCOCC1)c1ccc2cc(C(=O)N3CC(CCl)c4ccc([N+](=O)[O-])cc43)[nH]c2c1 (stereo unspecified) , the value recorded as its TGI is 52.7 µM

Given item COc1ccc2cc(-c3ccc(-c4ccc(C(=N)N)s4)s3)ccc2c1 , the value recorded as its TGI is 4.65 µM

Given item C=CCOC(=O)CC[N+]1=CCC(c2ccccc2)(c2ccccc2)O1 , the value recorded as its TGI is > 100 µM

Given item CC(CC(=O)Nc1ccc(NC(=O)CC(C)N=NC(N)=S)cc1)N=NC(N)=S (stereo unspecified) , the value recorded as its TGI is > 100 µM

Given item CCCCCCCCCCN=C(c1ccc(N(C)C)cc1)c1ccc(N(C)C)cc1 , the value recorded as its TGI is 53.4 µM

Given item CCCCCCCCCCCCCCCCCCNC(=O)[C@H]1CSC(c2cccs2)N1 (stereo partly specified) , the value recorded as its TGI is 1.76 µM

Given item CN(C)c1ccc(C=C2N=C(c3ccccc3)N(c3cc(C(=O)c4ccccc4)ccc3N3C(=O)/C(=C/c4ccc(N(C)C)cc4)N=C3c3ccccc3)C2=O)cc1 , the value recorded as its TGI is > 100 µM

Given item c1ccc2nc3c(cc4ccccn43)nc2c1 , the value recorded as its TGI is > 100 µM

Given item N#CC(C#N)=CNC(=S)c1ccncc1 , the value recorded as its TGI is > 100 µM

Given item COc1ccc(C#CC(=O)O)c(OC)c1 , the value recorded as its TGI is > 100 µM

Given item CN(C)Cc1cc(C(=O)/C=C/c2ccc(O)cc2)cc(CN(C)C)c1O , the value recorded as its TGI is 60.1 µM

Given item CSc1c(C#N)c(N)n2c1C(=O)N(c1ccccc1)C2=S , the value recorded as its TGI is > 100 µM

Given item C=CCC1[C@@H](C(C)(C)C(C(C)=O)C(=O)C(=O)OC)OC(C(C)(C)C)N1C(=O)OC (stereo partly specified) , the value recorded as its TGI is > 100 µM

Given item Clc1ccc(-c2nn3c(-c4ccncc4)nnc3s2)cc1 , the value recorded as its TGI is > 100 µM

Given item CCC(=C(c1ccc(OCCCN(C)C)cc1)c1ccc(OCCCN(C)C)cc1)c1ccc(Cl)cc1 , the value recorded as its TGI is 4.55 µM

Given item O=c1c2c3c(sc2n2c(-c4cc(-c5ccccc5)nn4-c4ccccc4)nnc2n1Cc1ccccc1)CCCC3 , the value recorded as its TGI is > 100 µM
